system: WEE2;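 also: kd values determined as follow-up on hits from a single-replicate KINOMEscan panel screen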
pKd: −log10 of the molar value.
Readout Type: pKd

INSERT INTO measurements (molecule, readout_type, result_value) VALUES
  ('CCn1c(-c2cccnc2O)nc2cnccc21 [SB-736715]', 'pKd', '< 5.00');

* * *

Consider the following compounds and their measured %Inh readings.
tested on: EPHA4; conditions: concentration: 1 μM, replicates: in singlicate; n = 1;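 also: KINOMEscan kinase panel screen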
Readout Type: %Inh (%)

INSERT INTO assay_data (smiles_data, target_entity, result_value) VALUES
  ('O=c1cc(N2CCOCC2)nc2n(Cc3cccc(Cl)c3Cl)ccn12', 'EPHA4', 0),
  ('Cl.NC(=O)c1cccc(Nc2nccc(Nc3ccc(Oc4cccc(Cl)c4)c(Cl)c3)n2)c1', 'EPHA4', 3),
  ('Fc1cccc(COc2nnc(-c3ccc4c(c3)CCO4)o2)c1', 'EPHA4', 0),
  ('CN(C)CCN(C)C(=O)c1cc(-c2ccncc2)c(-c2ccc(Cl)c(O)c2)o1.Cl.Cl', 'EPHA4', 6),
  ('CCn1c(-c2ccccn2)nc2cnccc21', 'EPHA4', 23),
  ('COc1cc2ncnc(Nc3ccc4nc(-c5ccccc5)[nH]c4c3)c2cc1OC.Cl', 'EPHA4', 0);

This collection of values is drawn from paper PMC5540273.
